Source: PubChem BioAssay AID1159580

protocol-notes: chemical genetic growth profiling, strain panel (AID 1159580);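 further: tested at 20 µM; growth read once vehicle control cultures reached saturation at 30 °C; 1 = growth at the plate median or of vehicle wells; lower values mean less growth of the strain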
cond: S. cerevisiae deletion strains, growth OD, locus YFR010W, strain ubp6, stronger effect = lower value
Out of some 5,500 compounds screened, about 2,000 (36%) were called active. Inconclusive results (about 18%) are left out. Some of the results follow.
value-kind: normalized growth
Number, no unit, nothing else.

Examples from the recorded data:
CN(C)CC[C@H](c1ccc(Cl)cc1)c1ccccn1 :: 0.991
CCC(=O)OCC(=O)C1(OC(=O)CC)C(C)CC2C3CCC4=CC(=O)C=CC4(C)C3(Cl)C(O)CC21C (centres undefined) :: 0.957
COC(=O)[C@H]1[C@H]2C[C@H]3c4[nH]c5cc(OC)ccc5c4CCN3C[C@H]2C[C@@H](OC(=O)c2cc(OC)c(OC)c(OC)c2)[C@@H]1OC :: 1.01
Cc1cc(N)c2ccccc2[n+]1CCCCCCCCCC[n+]1c(C)cc(N)c2ccccc21 :: 0.0738
O=S(=O)(O)O :: 0.973
C[C@@H]1CCC2[C@](C)(CO)[C@@H](O)CC[C@]2(C)[C@@]12CC[C@@](CO)(CCO)O2 (some centres undefined) :: 0.957

Q: Return reported normalized growth; argument: C[N+]1(C)C[C@H](O)[C@H](C(=O)[O-])C1
Result: 1.02

Q: Return reported normalized growth; argument: CCC(=O)O[C@]1(C(=O)CCl)[C@@H](C)CC2C3CCC4=CC(=O)C=C[C@]4(C)[C@@]3(F)[C@@H](O)C[C@@]21C (some centres undefined)
Result: 1.02

Q: Return reported normalized growth; argument: Oc1ccc2c3c1OC1[C@@H](O)CC[C@@]4(O)[C@@H](C2)N(CC2CCC2)CC[C@]314 (some centres undefined)
Result: 0.978
